So I've got a bunch of compounds here, and I need their z-score values.
test: MM1S myeloma cell viability, profiling panel, resazurin fluorescence, basal, 24 h, PK04 Diversity Set (AID 1174); details: higher = more signal, called active from +8 up or from −8 down;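 also: MM1S multiple myeloma cell line; test concentration not given here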
Respond using a number only.

Which z-score is reported for this compound? `COC(=O)[C@@]1(Cc2ccc(OC)cc2)[C@H]2c3cc(C(=O)N4CCCC4)n(Cc4ccc(C)c(F)c4F)c3C[C@H]2CN1C(=O)c1ccccc1`
-1.4

Which z-score is reported for this compound? O=C1NC(=O)C2C1C=CC(C(O)c1cc(C(F)(F)F)cc(C(F)(F)F)c1)N2Nc1ccccn1 (stereo not given)
-1.27

Which z-score is reported for this compound? `CC(C)N1C(=O)c2ccccc2[C@](C)(C(=O)NCCN2CCOCC2)[C@@H]1c1ccc(CO)cc1`
-0.139

Which z-score is reported for this compound? CC(C)C(CO)N1C(=O)[C@@H]2C3C(=O)OCCC/C=C\[C@H]3OC23C=CCN(CCN2CCOCC2)C(=O)[C@@H]13 (stereo not given in full)
-0.686

Which z-score is reported for this compound? `O=C1c2ccccc2[C@](Cc2ccccc2I)(C(=O)NCCN2CCOCC2)[C@H](c2ccc(CO)cc2)N1Cc1ccccc1Cl`
0.618

Which z-score is reported for this compound? `C=CCNC(=O)[C@H]1[C@@H]2C(=O)O[C@@H](c3ccccc3)[C@@H](c3ccccc3)N2[C@@H](c2ccccc2OCCO)[C@]12C(=O)Nc1ccc(C#CCC(C(=O)OC)C(=O)OC)cc12`
-7.81

Which z-score is reported for this compound? `COC(=O)c1c(CC[C@@H](CO)NC(=O)NCCn2cc(C3(O)CCCC3)nn2)oc(C(C)=O)c1C(=O)OC`
-0.691

Which z-score is reported for this compound? `O=C1N[C@@H](Cc2ccccc2)C(=O)N2[C@@H]1C[C@@H](C(=O)O)[C@H]2c1cccc(OCCO)c1`
-0.0089

Which z-score is reported for this compound? `C[C@@]1([C@@H](NC(=O)c2ccc(-c3ccccc3)cc2)c2ccc(Cl)cc2)C[C@H]1C1CCCCC1`
-2.24

Which z-score is reported for this compound? C[C@H]1NC(=O)[C@@]23C(=O)N[C@@H](Cc4ccccc4)C2[C@H](C)[C@@]2(C)O[C@H]2C3/C=C/C/C=C\CNC(=O)[C@@H]2CCCN2C1=O (stereo not given in full)
0.607

Which z-score is reported for this compound? O[C@@H](Cc1ccccc1)[C@H]1C2C=CCCC=C2CN1Cc1cccc(Cl)c1 (stereo not given in full)
-0.686

Which z-score is reported for this compound? CN1C(=O)C2C=CC(C(O)C#Cc3ccccc3)N(N3CCCCC3)C2C1=O (stereo not given)
-0.347

Which z-score is reported for this compound? `CCOC(=O)C[C@H]1[C@H](OC(=O)c2ccccc2-c2ccccc2)[C@@H](NC(=O)CC(C)C)c2cc(OCCCO)ccc2N1C(=O)Cc1ccc(OC)cc1`
0.0683

Which z-score is reported for this compound? `COCCOC(=O)N1C(=O)[C@@]2(c3cc(C#CCC(C(=O)OC)C(=O)OC)ccc31)[C@H](C(=O)Nc1nc3ccccc3s1)[C@H]1C(=O)O[C@H](c3ccccc3)[C@H](c3ccccc3)N1[C@@H]2c1ccccc1OCCO`
-1.38

Which z-score is reported for this compound? `COCC(=C=CC[C@@H](O)c1cccc(OCCO)c1)C[C@@H](O)c1ccccn1`
0.423

Which z-score is reported for this compound? `C=C[C@H](CO)NS(=O)(=O)c1ccc(Br)cc1`
0.44

Which z-score is reported for this compound? `NCCCCCCNC(=O)[C@@H]1C[C@@H]2C(=O)NCC(=O)N2[C@@H]1c1ccc(O)cc1`
1.02

Which z-score is reported for this compound? `C=C(CCCC)/C(=C/C[C@H](OC(C)=O)c1ccccc1OCCO)c1cc(C(=O)OC)ccc1OC`
0.911

Which z-score is reported for this compound? `C=CCN1C(=O)[C@]2(O[C@H](CCn3cc([C@H](O)c4ccccc4)nn3)[C@@H]([Si](C)(C)c3ccc(OC)cc3)[C@@H]2C)c2cc(N3CCC3=O)ccc21`
-1.85

Which z-score is reported for this compound? `COC(=O)[C@@]1(Cc2ccc(OC)cc2)[C@H]2c3cc(C(=O)N(C)C)n(CCc4ccccn4)c3C[C@H]2CN1C(=O)c1ccccc1`
-2.34

Which z-score is reported for this compound? CCCCC(CC)C(O)C1C=CC2C(=O)N(Cc3ccccc3)C(=O)C2N1n1cnnc1 (stereo not given)
-0.763

Which z-score is reported for this compound? `[N-]=[N+]=NCc1ccccc1C[C@]1(C(N)=O)COC(c2ccc(OCCCO)cc2)=N1`
0.424

Which z-score is reported for this compound? `COCCOC(=O)N1C(=O)[C@@]2(c3cc(C#CCCO)ccc31)[C@H](C(N)=O)[C@H]1C(=O)O[C@H](c3ccccc3)[C@H](c3ccccc3)N1[C@@H]2c1ccc(O)cc1`
0.0773

Which z-score is reported for this compound? C=CCC(OC(C)=O)[C@@H]1[C@@H](N(Cc2cc3ccccc3o2)C(=O)c2cccc3ccccc23)c2cc(OCCCO)ccc2N1C(=O)c1ccc(-c2ccccc2)cc1 (stereo not given in full)
0.353

Which z-score is reported for this compound? `C=C(COC)/C(=C/C[C@@H](OC(=O)c1ccncc1)c1ccc(CO)o1)c1cc(C(=O)OC)ccc1OC`
0.0477

Which z-score is reported for this compound? `CCCC[C@@H]1C[C@H]1[C@@H](NC(=O)C(C)(C)C)c1ccc(C(F)(F)F)cc1`
-0.858

Which z-score is reported for this compound? `CCCC[C@@H]1C[C@H]1[C@@H](NC(=O)c1ccccc1)c1ccc(C(=O)OC)cc1`
-0.892

Which z-score is reported for this compound? CC(C)C(O)C1C=CC2C(=O)NC(=O)C2N1Nc1ccc(Cl)cc1Cl (stereo not given)
-1.59

Which z-score is reported for this compound? CC1(C)[C@@H]2CC(C(O)C3C=CC4C(=O)N(Cc5ccccc5)C(=O)C4N3n3cnnc3)=C[C@H]1C2 (stereo not given in full)
-0.12

Which z-score is reported for this compound? CCC(CC)C(O)C1C=CC2C(=O)NC(=O)C2N1Nc1ccccn1 (stereo not given)
-1.76
